Target: NRAS G12C (Homo sapiens (Human), UniProt P01111+P62937, G12C)
Sequence (P01111 whole entry G12C): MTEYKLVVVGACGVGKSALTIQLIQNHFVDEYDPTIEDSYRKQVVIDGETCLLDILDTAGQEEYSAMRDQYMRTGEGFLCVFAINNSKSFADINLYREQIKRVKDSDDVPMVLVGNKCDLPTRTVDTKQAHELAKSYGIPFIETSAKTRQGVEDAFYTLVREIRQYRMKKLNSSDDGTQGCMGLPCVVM
Sequence (P62937 whole entry): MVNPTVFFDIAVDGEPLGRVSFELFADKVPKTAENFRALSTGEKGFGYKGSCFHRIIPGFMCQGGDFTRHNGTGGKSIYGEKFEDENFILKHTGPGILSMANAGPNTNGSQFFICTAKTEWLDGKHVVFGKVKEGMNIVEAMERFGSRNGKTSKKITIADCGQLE
Experiment: Ras-Raf disruption/FRET/MOA assay (BRAF RBD, Cyclophilin A)
Type: biochemical
Settings: read-out: NRAS G12C FRET data IC50
pIC50: −log10 of the molar value.
measurement_name: pIC50

CCn1c(-c2cccnc2[C@H](C)OC)c2c3cc(ccc31)-c1cc(O)cc(c1)C[C@H](NC(=O)[C@H](C(C)C)N(C)C(=O)[C@H]1[C@@H](N)[C@@H]3CC[C@H]1O3)C(=O)N1CCC[C@H](N1)C(=O)OCC(C)(C)C2 [Compound A421] :: 6.00 to 7.00

query: What value of pIC50 has been reported for the following compound? CCn1c(-c2cccnc2[C@H](C)OC)c2c3cc(ccc31)-c1csc(n1)C[C@H](NC(=O)[C@H](C(C)C)N(C)C(=O)N1CC[C@]3(CCNC3=O)C1)C(=O)N1CCC[C@H](N1)C(=O)OCC(C)(C)C2 [Compound A479]
result: 6.00 to 7.00

query: # get_value(readout='pIC50', item= CCn1c(-c2cccnc2[C@H](C)OC)c2c3cc(ccc31)-c1cc(O)cc(c1)C[C@H](NC(=O)[C@H](C(C)C)N(C)C(=O)C13CCC(CO1)C3)C(=O)N1CCC[C@H](N1)C(=O)OCC(C)(C)C2 [Compound A411] )
result: 7.00 to 8.00

query: Which measured pIC50 value corresponds to CCn1c(-c2cccnc2[C@H](C)OC)c2c3cc(ccc31)-c1csc(n1)C[C@H](NC(=O)[C@H](C(C)C)N(C)C(=O)N1C[C@@H]3OCCN(C)[C@@H]3C1)C(=O)N1CCC[C@H](N1)C(=O)OCC(C)(C)C2 [Compound A444] ?
result: 7.00 to 8.00
